Biological target: T1, 4H775-AA
T1 chain: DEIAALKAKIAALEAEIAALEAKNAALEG
Assay: two-hybrid library CCmax;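 note: natural log of median RNA to DNA barcode read ratio; higher means stronger binding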
Conditions: mean of both orientations
Provide the reported interaction score of each item.
One number for each entry.

| binder | interaction score |
| --- | --- |
| DKIAALKAKNAALEAKIAALKAEIAALEG [4H2985-AA] | -0.922 |

// each binder listed below needs its interaction score
1. DEIAALEAKNAALKAKNAALKAKIAALKG [4H510-AA]
2. DENAALKAENAALEAKIAALKAKIAALKG [4H1710-AA]
3. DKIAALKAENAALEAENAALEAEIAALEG [4H2705-AA]

## Result
[-1.67, -0.259, -1.89]

// input: 3 binders below; output: interaction score for each
1. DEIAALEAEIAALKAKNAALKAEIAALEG [4H121-AA]
2. DKNAALEAEIAALEAKNAALKAKIAALKG [4H3134-AA]
3. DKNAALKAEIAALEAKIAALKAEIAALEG [4H3625-AA]

## Result
1: -0.904; 2: -0.634; 3: 0.881
